src = ChEMBL document CHEMBL5325468

Could you please report measured pKd for the items listed next?
Target: Receptor-interacting serine/threonine-protein kinase 1 (Homo sapiens, UniProt Q13546)
Sequence (Q13546 whole entry): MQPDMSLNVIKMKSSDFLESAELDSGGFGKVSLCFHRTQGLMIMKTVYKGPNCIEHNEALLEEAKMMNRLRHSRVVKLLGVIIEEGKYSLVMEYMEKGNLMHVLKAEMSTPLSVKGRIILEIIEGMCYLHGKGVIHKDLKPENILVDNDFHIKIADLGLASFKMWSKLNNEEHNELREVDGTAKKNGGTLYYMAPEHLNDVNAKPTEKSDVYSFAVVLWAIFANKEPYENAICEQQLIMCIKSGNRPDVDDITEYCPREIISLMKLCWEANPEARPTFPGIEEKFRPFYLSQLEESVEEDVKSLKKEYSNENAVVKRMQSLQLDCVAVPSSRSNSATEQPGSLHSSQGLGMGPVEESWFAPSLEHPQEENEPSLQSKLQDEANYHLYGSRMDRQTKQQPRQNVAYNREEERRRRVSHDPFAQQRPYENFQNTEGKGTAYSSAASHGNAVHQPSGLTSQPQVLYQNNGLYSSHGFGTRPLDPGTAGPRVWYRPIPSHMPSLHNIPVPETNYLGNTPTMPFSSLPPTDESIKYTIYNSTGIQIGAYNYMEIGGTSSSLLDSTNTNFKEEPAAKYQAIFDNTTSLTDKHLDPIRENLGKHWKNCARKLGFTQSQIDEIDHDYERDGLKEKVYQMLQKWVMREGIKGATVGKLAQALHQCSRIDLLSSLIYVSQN
pKd here is simply -log10 of the concentration when that concentration is written in mol/L.

[ask] Item: `CN1C(=O)[C@@H](NC(=O)c2cc3cccc(-c4cccc(F)c4F)c3[nH]2)COc2ccccc21` Test system: Receptor-interacting serine/threonine-protein kinase 1 (Homo sapiens, UniProt Q13546) Read-out: pKd Value: ?
[reply] 6.59

[ask] Which measured pKd belongs to `CN1C(=O)[C@@H](NC(=O)c2cc3cccc(-c4ccccc4)c3[nH]2)COc2ccccc21` , tested on Receptor-interacting serine/threonine-protein kinase 1 (Homo sapiens, UniProt Q13546)?
[reply] 6.72

[ask] Given the entry `Cc1ccccc1-c1cccc2cc(C(=O)N[C@H]3COc4ccccc4N(C)C3=O)[nH]c12` , what pKd was observed with Receptor-interacting serine/threonine-protein kinase 1 (Homo sapiens, UniProt Q13546)?
[reply] 6.57
